test system: RAW-Dual (murine macrophage reporter line); experiment: IRF reporter (Lucia luciferase) activity fold change vs agonist alone; higher = enhanced IRF activity; settings: modulator concentration 10 µM; agonist: MPLA […]
Task for the reader: assign each of the following compounds its reported IRF reporter.
Answers are plain numbers.

# COMPOUND, IRF reporter
rows = [
    ("Brc1ccc(Cn2c(CN3CCCC3)nc3ccccc32)cc1", 1.16),
]

Could you tell me IRF reporter for each of these compounds? They are listed below.
1. CCc1c2c(nc3ccc(OC(=O)N4CCC(N5CCCCC5)CC4)cc13)-c1cc3c(c(=O)n1C2)COC(=O)[C@]3(O)CC.Cl.O.O.O
2. CCSc1nnc(NC(=O)C2CC3CCC2C3)s1 (configuration not stated)
3. NC(=O)[C@@H](CCC(F)(F)F)N(Cc1ccc(-c2ncon2)cc1F)S(=O)(=O)c1ccc(Cl)cc1

1.2
1.09
1.58
